B1: HDV Ribozyme (parent)
chain: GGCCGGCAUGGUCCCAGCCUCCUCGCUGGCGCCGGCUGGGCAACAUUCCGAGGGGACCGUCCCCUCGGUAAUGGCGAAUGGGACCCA

- Variants of: B1
- experiment summary: self-cleavage, relative activity (ratio to wild type); higher = more cleavage; co-transcriptional
I'd be grateful if you could share measured self-cleavage for these entries.
Answer with a number only.

Q: Report self-cleavage, nothing else, for this variant: GGCCGGCAUGGUCCCAGCCUCCUCGCUGGCGCCGGCUGGGCAACAUUCCGAGGGGACCGUCCCCUCGGUACUGGCGAAUUGGACCCA [A71C G80U]
A: 0.182

Q: Report self-cleavage, nothing else, for this variant: GGCCGGCAUUGUCCCAGCCUCCUCGCUGGAGCCGGCUGGGCAACAUUCCGAGGGGACCGUCCCCUCGGUAAUGGCGAAUGGGACCCA [G10U C30A]
A: 0.158

Q: Report self-cleavage, nothing else, for this variant: GCCCGGCAUGGUCCCAGCCUACUCGCUGGCGCCGGCUGGGCAACAUUCCGAGGGGACCGUCCCCUCGGUAAUGGCGAAUGGGACCCA [G2C C21A]
A: 0

Q: Report self-cleavage, nothing else, for this variant: GGCCGGCAUGGUCCCAGCCUCCUCGUUGGCGCCGGCUGGGCUACAUUCCGAGGGGACCGUCCCCUCGGUAAUGGCGAAUGGGACCCA [C26U A42U]
A: 0.682

Q: Report self-cleavage, nothing else, for this variant: GGCCGGCAUGGUCCCAGCCUCCUCGCUGGCGCCGUCUGGGCAACAUUCCGAGGGGACCGUCCCCACGGUAAUGGCGAAUGGGACCCA [G35U U65A]
A: 0.35

Q: Report self-cleavage, nothing else, for this variant: GGCCGGCAUGGUCCCAGCCUCCUCGCUGGCGCCGGCUAGGCAACAUUCCGAAGGGACCGUCCCCUCGGUAAUGGCGAAUGGGACCCA [G38A G52A]
A: 0.173

Q: Report self-cleavage, nothing else, for this variant: GGCCUGCAUGGUCCCAGCCUCCUCGCUGGCGCCGGCUGGGCAACAUUCCGAGGGGAUCGUCCCCUCGGUAAUGGCGAAUGGGACCCA [G5U C57U]
A: 0.604

Q: Report self-cleavage, nothing else, for this variant: GGCCGGCAUGGUACCAGCCUCCUCGCUGGCGCCGGCUGGGCAACAUUCCGAGGGGACCGUCCCCUCGGUAAUGGCGAAUGGGAGCCA [C13A C84G]
A: 0.237
